# testSystem: Proto-oncogene tyrosine-protein kinase Src (Homo sapiens) (UniProt P12931)
# Sequence (P12931 2-536 limits assumed): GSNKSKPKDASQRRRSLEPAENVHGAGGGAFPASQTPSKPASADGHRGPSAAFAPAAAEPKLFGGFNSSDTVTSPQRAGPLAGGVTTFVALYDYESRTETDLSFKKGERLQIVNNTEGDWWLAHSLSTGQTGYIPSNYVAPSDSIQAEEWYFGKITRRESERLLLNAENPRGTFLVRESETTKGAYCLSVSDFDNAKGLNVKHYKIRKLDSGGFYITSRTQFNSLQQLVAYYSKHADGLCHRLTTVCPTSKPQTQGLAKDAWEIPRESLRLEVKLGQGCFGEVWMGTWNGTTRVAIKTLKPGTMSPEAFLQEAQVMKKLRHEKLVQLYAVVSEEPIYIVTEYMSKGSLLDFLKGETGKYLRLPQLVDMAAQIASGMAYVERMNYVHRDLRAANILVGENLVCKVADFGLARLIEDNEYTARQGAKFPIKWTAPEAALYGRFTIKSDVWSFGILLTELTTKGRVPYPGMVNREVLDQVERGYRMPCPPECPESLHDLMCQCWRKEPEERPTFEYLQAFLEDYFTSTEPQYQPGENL
# assayProcedure: Inhibition of recombinant SRC at <10 uM by radiometric kinase assay
Active and inactive are the calls of the source. No cut-off for these calls is given here.
readoutName: inhibition

CCOc1ccc(Nc2nccc(-c3nc4ccccc4n3C)n2)cc1 : inactive
Cc1ccc(Nc2nccc(-c3nc4ccccc4n3C)n2)cc1 : inactive
Cn1c(=O)c2ccc(-c3nc4ccccc4n3C)nc2n(C)c1=O : inactive
Cn1c(-c2ccnc(Nc3ccc(Cl)cc3)n2)nc2ccccc21 : inactive
Cn1c(-c2ccnc(Nc3ccccc3)n2)nc2ccccc21 : inactive

Recorded inhibition of COc1ccc(Nc2nccc(-c3nc4ccccc4n3C)n2)cc1 , please.
inactive

Repeat for the following molecule: Cn1c(-c2ccnc(Nc3ccc(N4CCOCC4)cc3)n2)nc2ccccc21
inactive

###

# Tested on: TK-10
# assayProcedure: Antiproliferative activity against human TK10 cells after 48 hrs by SRB assay
# Assay type: functional
# conditionsUsed: TK-10, 48 h
Structures can show the parent of a compound that is named as a salt.
Entries and their GI50 values follow.
Reply numerically in µM, unit not repeated.

Recorded GI50 of CCN(CC)CCNC(=O)c1c(C)[nH]c(/C=C2\C(=O)Nc3ccc(F)cc32)c1C , please.
6.3

Repeat for the following compound: CNC(=O)c1cc(Oc2ccc(NC(=O)Nc3ccc(Cl)c(C(F)(F)F)c3)cc2)ccn1 [SORAFENIB TOSYLATE]
5

Repeat for the following compound: COc1ccc(Nc2ncc3c(n2)-c2ccccc2NC(=O)C3)cc1O
4.1

Repeat for the following compound: COc1ccc(Nc2nccc(-c3nc4ccccc4n3C)n2)cc1O
26

###

# testSystem: RAC-alpha serine/threonine-protein kinase (Homo sapiens)
# Sequence (P31749 whole entry): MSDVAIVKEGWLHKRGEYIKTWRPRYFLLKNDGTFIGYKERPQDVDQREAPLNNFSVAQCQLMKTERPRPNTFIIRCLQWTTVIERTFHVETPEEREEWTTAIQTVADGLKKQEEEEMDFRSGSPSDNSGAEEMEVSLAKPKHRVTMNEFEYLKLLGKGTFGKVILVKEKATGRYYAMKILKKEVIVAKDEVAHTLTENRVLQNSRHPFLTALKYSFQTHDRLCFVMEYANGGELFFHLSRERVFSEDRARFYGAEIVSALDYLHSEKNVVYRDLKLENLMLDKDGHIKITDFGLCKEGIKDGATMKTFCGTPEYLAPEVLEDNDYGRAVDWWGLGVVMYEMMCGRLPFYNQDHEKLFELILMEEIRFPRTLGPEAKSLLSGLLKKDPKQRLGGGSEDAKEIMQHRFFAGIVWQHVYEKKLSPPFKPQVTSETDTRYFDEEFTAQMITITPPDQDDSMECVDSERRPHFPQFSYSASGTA
# assayProcedure: Inhibition of recombinant AKT1 using GSK3 as substrate assessed as inhibition of [33P]Phosphate incorporation into substrate after 80 mins by scintillation counting
Entries and their IC50 values follow.

CCOc1ccc(Nc2nccc(-c3nc4ccccc4n3C)n2)cc1 : > 100 µM
Cn1c(-c2ccnc(Nc3ccc(O)cc3)n2)nc2ccccc21 : > 100 µM
Cn1c(-c2ccnc(Nc3ccccc3)n2)nc2ccccc21 : > 100 µM
COc1ccc(Nc2ncc3c(n2)-c2ccccc2NC(=O)C3)cc1O : > 100 µM
Cn1c(-c2ccnc(Nc3ccc(O)c(Cl)c3)n2)nc2ccccc21 : > 100 µM
Cn1c(-c2ccnc(Nc3ccc(Cl)cc3)n2)nc2ccccc21 : 41 µM
COc1ccc(Nc2nccc(-c3nc4ccccc4n3C)n2)cc1O : > 100 µM
Cn1c(-c2ccnc(Nc3ccc(N4CCOCC4)cc3)n2)nc2ccccc21 : > 100 µM

Recorded IC50 of COc1ccc(Nc2nccc(-c3nc4ccccc4n3C)n2)cc1 , please.
75 µM

Repeat for the following compound: Cn1c(-c2ccnc(Nc3cccc(O)c3)n2)nc2ccccc21
> 100 µM

###

# testSystem: Serine/threonine-protein kinase PLK1 (Homo sapiens, UniProt P53350)
# Sequence (P53350 whole entry): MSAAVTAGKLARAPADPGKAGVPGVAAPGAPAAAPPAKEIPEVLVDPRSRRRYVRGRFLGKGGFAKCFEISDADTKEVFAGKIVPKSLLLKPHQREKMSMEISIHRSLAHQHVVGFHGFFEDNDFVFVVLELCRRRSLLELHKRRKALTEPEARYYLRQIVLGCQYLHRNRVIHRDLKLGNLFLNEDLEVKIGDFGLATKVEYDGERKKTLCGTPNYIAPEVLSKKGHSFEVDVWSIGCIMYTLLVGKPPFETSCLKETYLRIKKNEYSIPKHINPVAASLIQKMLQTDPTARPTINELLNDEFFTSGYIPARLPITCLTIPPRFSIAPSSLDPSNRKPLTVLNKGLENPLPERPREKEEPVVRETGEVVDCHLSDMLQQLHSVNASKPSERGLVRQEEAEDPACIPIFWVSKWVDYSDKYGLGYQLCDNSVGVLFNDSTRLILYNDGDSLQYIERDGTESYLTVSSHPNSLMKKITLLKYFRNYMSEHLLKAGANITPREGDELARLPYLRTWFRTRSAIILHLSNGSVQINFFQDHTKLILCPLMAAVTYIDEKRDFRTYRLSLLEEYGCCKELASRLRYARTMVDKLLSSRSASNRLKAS
# assayProcedure: Inhibition of recombinant PLK1 using RBERCHKtide as substrate assessed as inhibition of [33P]Phosphate incorporation into substrate after 80 mins by scintillation counting
readoutName: IC50 (µM)

Take a look at these entries with their results.
Cn1c(-c2ccnc(Nc3ccccc3)n2)nc2ccccc21 : 60
COc1ccc(Nc2nccc(-c3nc4ccccc4n3C)n2)cc1 : 15

(P) Cn1c(-c2ccnc(Nc3ccc(O)cc3)n2)nc2ccccc21
(Q) Cn1c(-c2ccnc(Nc3ccc(O)c(Cl)c3)n2)nc2ccccc21
(R) COc1ccc(Nc2nccc(-c3nc4ccccc4n3C)n2)cc1O
(S) Cn1c(-c2ccnc(Nc3cccc(O)c3)n2)nc2ccccc21
Please give the order of these molecules when sorted by IC50, largest value leading. Output spec: labels arranged per the requested ranking.
P, Q, S, R

###

# testSystem: UniProtKB Q96GD4
# Sequence (Q96GD4 whole entry): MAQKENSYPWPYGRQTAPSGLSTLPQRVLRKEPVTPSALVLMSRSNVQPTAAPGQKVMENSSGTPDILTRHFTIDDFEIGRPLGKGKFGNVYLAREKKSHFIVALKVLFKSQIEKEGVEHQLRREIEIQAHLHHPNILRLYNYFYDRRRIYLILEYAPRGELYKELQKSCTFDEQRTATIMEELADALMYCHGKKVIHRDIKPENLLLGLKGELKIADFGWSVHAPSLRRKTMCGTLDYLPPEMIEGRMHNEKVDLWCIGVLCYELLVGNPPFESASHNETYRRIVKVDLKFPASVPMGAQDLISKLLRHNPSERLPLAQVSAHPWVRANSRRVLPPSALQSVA
# assayProcedure: Inhibition of recombinant Aurora B using tetra(LRRWSLG) as substrate assessed as inhibition of [33P]Phosphate incorporation into substrate after 80 mins by scintillation counting
pIC50: −log10 of the molar value.
readoutName: pIC50

Take a look at these entries with their results.
Cn1c(-c2ccnc(Nc3cccc(O)c3)n2)nc2ccccc21 : 5.26
Cn1c(-c2ccnc(Nc3ccc(O)c(Cl)c3)n2)nc2ccccc21 : 5.15

(1) COc1ccc(Nc2nccc(-c3nc4ccccc4n3C)n2)cc1O
(2) Cn1c(-c2ccnc(Nc3ccc(O)cc3)n2)nc2ccccc21
(3) COc1ccc(Nc2nccc(-c3nc4ccccc4n3C)n2)cc1
(4) COc1ccc(Nc2ncc3c(n2)-c2ccccc2NC(=O)C3)cc1O
// smallest pIC50 at index 0, largest at the end Output spec: labels arranged per the requested ranking.
3, 2, 1, 4
(3: 4.21, 2: 4.95, 1: 5.22, 4: 5.52)

###

# System: SW-620
# assayProcedure: Antiproliferative activity against human SW620 cells after 48 hrs by SRB assay
# Assay type: functional
# conditionsUsed: SW-620, 48 h
Where a name gives a salt, the structure may show the parent alone.
readoutName: GI50 (nM)

COc1ccc(Nc2ncc3c(n2)-c2ccccc2NC(=O)C3)cc1O : 440

(1) CNC(=O)c1cc(Oc2ccc(NC(=O)Nc3ccc(Cl)c(C(F)(F)F)c3)cc2)ccn1 [SORAFENIB TOSYLATE]
(2) COc1ccc(Nc2nccc(-c3nc4ccccc4n3C)n2)cc1O
(3) CCN(CC)CCNC(=O)c1c(C)[nH]c(/C=C2\C(=O)Nc3ccc(F)cc32)c1C
Please give the order of these compounds when sorted by GI50, largest value leading. Output spec: labels arranged per the requested ranking.
1, 3, 2
(1: 3200 nM, 3: 1300 nM, 2: 620 nM)

###

# System: MCF7
# assayProcedure: Antiproliferative activity against human MCF7 cells after 48 hrs by SRB assay
# Type: functional
# conditionsUsed: MCF7, 48 h
Counter-ions that a name gives are not always drawn.
readoutName: GI50 (µM)

Take a look at these entries with their results.
COc1ccc(Nc2ncc3c(n2)-c2ccccc2NC(=O)C3)cc1O : 0.79
CNC(=O)c1cc(Oc2ccc(NC(=O)Nc3ccc(Cl)c(C(F)(F)F)c3)cc2)ccn1 [SORAFENIB TOSYLATE] : 2.5

(1) COc1ccc(Nc2nccc(-c3nc4ccccc4n3C)n2)cc1O
(2) CCN(CC)CCNC(=O)c1c(C)[nH]c(/C=C2\C(=O)Nc3ccc(F)cc32)c1C [SUNITINIB]
Of 1 and 2 , which one carries the higher reported GI50? Returns: label corresponding to the selected item.
2

###

# System: HT-29
# assayProcedure: Antiproliferative activity against human HT-29 cells after 48 hrs by SRB assay
# Assay type: functional
# conditionsUsed: HT-29, 48 h
Structures can show the parent of a compound that is named as a salt.
readoutName: GI50 (nM)

Take a look at these entries with their results.
CCN(CC)CCNC(=O)c1c(C)[nH]c(/C=C2\C(=O)Nc3ccc(F)cc32)c1C : 1600
COc1ccc(Nc2ncc3c(n2)-c2ccccc2NC(=O)C3)cc1O : 3400

(P) COc1ccc(Nc2nccc(-c3nc4ccccc4n3C)n2)cc1O
(Q) CNC(=O)c1cc(Oc2ccc(NC(=O)Nc3ccc(Cl)c(C(F)(F)F)c3)cc2)ccn1 [SORAFENIB TOSYLATE]
Of P and Q , which one carries the higher reported GI50? Returns: label corresponding to the selected item.
P

###

Entries and their GI50 values follow.
# Tested on: CAKI-1
# assayProcedure: Antiproliferative activity against human CAKI-1 cells after 48 hrs by SRB assay
# Assay type: functional
# conditionsUsed: CAKI-1, 48 h
Counter-ions that a name gives are not always drawn.
Reply numerically in µM, unit not repeated.

Take a look at these entries with their results.
COc1ccc(Nc2nccc(-c3nc4ccccc4n3C)n2)cc1O : 0.86
COc1ccc(Nc2ncc3c(n2)-c2ccccc2NC(=O)C3)cc1O : 0.15
CCN(CC)CCNC(=O)c1c(C)[nH]c(/C=C2\C(=O)Nc3ccc(F)cc32)c1C : 0.63

Now consider the entry below.
GET /values?readout=GI50&system=CAKI-1&item= CNC(=O)c1cc(Oc2ccc(NC(=O)Nc3ccc(Cl)c(C(F)(F)F)c3)cc2)ccn1 [SORAFENIB TOSYLATE]
3.2

###

# testSystem: UniProt Q05397
# Sequence (Q05397 whole entry): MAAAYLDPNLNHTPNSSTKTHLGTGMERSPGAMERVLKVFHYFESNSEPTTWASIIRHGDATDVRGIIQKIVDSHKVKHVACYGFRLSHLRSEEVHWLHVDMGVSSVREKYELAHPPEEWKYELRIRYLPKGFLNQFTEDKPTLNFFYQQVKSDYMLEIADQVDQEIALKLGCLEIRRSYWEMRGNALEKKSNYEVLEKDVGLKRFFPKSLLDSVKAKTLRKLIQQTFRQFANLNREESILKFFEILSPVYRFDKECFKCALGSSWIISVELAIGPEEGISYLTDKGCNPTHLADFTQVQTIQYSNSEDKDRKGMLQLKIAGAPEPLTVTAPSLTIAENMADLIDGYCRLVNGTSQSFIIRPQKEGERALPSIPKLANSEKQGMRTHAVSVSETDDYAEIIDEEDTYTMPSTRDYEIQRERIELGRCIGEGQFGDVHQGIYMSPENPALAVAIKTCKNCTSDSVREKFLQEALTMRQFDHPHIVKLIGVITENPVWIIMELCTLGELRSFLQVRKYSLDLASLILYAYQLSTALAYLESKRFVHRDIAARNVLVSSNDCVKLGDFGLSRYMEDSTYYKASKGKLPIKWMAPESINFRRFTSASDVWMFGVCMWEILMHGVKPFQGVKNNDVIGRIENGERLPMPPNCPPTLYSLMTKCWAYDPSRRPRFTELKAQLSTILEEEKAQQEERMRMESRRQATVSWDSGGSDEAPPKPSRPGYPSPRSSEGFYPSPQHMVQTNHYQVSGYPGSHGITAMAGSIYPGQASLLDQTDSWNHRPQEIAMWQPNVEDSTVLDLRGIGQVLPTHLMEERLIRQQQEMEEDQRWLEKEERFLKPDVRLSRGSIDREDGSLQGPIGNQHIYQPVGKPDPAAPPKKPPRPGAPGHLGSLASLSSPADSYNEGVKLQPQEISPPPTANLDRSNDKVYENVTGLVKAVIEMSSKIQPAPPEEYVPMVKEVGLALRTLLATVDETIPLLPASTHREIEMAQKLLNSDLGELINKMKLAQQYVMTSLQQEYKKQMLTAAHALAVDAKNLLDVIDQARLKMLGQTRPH
# assayProcedure: Inhibition of recombinant FAK using poly(Glu,Tyr)4 as substrate assessed as inhibition of [33P]Phosphate incorporation into substrate after 80 mins by scintillation counting
pIC50: −log10 of the molar value.
readoutName: pIC50

Cc1ccc(Nc2nccc(-c3nc4ccccc4n3C)n2)cc1 : 4.24

(1) Cn1c(-c2ccnc(Nc3ccccc3)n2)nc2ccccc21
(2) Cn1c(-c2ccnc(Nc3ccc(O)c(Cl)c3)n2)nc2ccccc21
(3) Cn1c(-c2ccnc(Nc3cccc(O)c3)n2)nc2ccccc21
(4) Cn1c(-c2ccnc(Nc3ccc(Cl)cc3)n2)nc2ccccc21
(5) Cn1c(-c2ccnc(Nc3ccc(N4CCOCC4)cc3)n2)nc2ccccc21
Please give the order of these compounds when sorted by pIC50, largest value leading. Output spec: labels arranged per the requested ranking.
3, 2, 5, 1, 4

(P) Cn1c(=O)c2ccc(-c3nc4ccccc4n3C)nc2n(C)c1=O
(Q) Cn1c(-c2ccnc(Nc3ccc(O)cc3)n2)nc2ccccc21
Which entry shows the lesser value of pIC50 here, P or Q ? Returns: label corresponding to the selected item.
P
(P: 4.04, Q: 4.94)

(P) COc1ccc(Nc2nccc(-c3nc4ccccc4n3C)n2)cc1
(Q) COc1ccc(Nc2ncc3c(n2)-c2ccccc2NC(=O)C3)cc1O
Which entry shows the lesser value of pIC50 here, P or Q ? Returns: label corresponding to the selected item.
P
(P: 4.57, Q: 6.19)
